I'd appreciate it if you could supply pKd values for the items below.
tgt: U1A E19S:N15V (UniProt P09012 10-89, N15V;E19S)
Sequence (P09012 10-89 N15V/E19S): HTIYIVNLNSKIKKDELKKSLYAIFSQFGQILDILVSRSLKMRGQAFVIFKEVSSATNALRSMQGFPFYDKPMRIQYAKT
experiment: fluorescence polarization
Numbers only, as −log10 of the molar value.

> print(dat)
                                     binder  valueobserved
1  GGCAGAUCUGAGCCUGGGAGCUCUCUGCC (structured_RNA) [TAR RNA]           4.95

Look up pKd for this binder: AGCUUAUCCAUUGCACCGGAUAAGCU (structured_RNA) [U1hpII RNA]
4.82
